Data provenance is ChEMBL document CHEMBL1157443.

# ASSAY COMMENT: Cytotoxicity against human Hep G2.2.15 cells
# Assay type: cell-based, HepG2 2.2.15
READOUT LABEL: CC50 (µM)
Use µM as the unit, but write only the number.

Record excerpt, results attached:
{"columns": ["COMPOUND", "CC50 (µM)"],
 "data": [
  ["CC(=O)OC1N=C(c2ccccc2)c2cc(Cl)ccc2NC1=O (configuration not stated)", 678],
  ["O=C1CN2OC2(c2ccccc2Cl)c2cc(Cl)ccc2N1 (configuration not stated)", 302],
  ["Nc1c(-c2ccccc2Cl)c2cc(Cl)ccc2[nH]c1=O", 341],
  ["CC(=O)OC1N=C(c2ccccc2Cl)c2cc(Cl)ccc2NC1=O (configuration not stated)", 154],
  ["O=C1CN2OC2(c2ccccc2F)c2cc(Cl)ccc2N1 (configuration not stated)", 346],
  ["O=c1cc(-c2ccccc2Cl)c2cc(Cl)ccc2[nH]1", 6000],
  ["O=C1CN=C(c2ccccc2Cl)c2cc(Cl)ccc2N1", 76],
  ["O=C1CN2OC2(c2ccccc2)c2cc(Cl)ccc2N1 (configuration not stated)", 946]
]}

# input # lookup: CC50 of Nc1c(-c2ccccc2F)c2cc(Cl)ccc2[nH]c1=O
# output 767

# input # lookup: CC50 of O=C1CN=C(c2ccccc2F)c2cc(Cl)ccc2N1
# output 183

# input # lookup: CC50 of CC(=O)Nc1c(-c2ccccc2F)c2cc(Cl)ccc2[nH]c1=O
# output 44

----------
# Ratio CC50/IC50 per record follows
# ASSAY COMMENT: Selectivity index, ratio of CC50 for human Hep G2.2.15 cells to IC50 for HBV e antigen secretion
# Format: functional

{"columns": ["COMPOUND", "READOUT LABEL", "TEST RESULT"],
 "data": [
  ["CC(=O)OC1N=C(c2ccccc2)c2cc(Cl)ccc2NC1=O (stereo not given)", "Ratio CC50/IC50", "<1"],
  ["O=c1cc(-c2ccccc2)c2cc(Cl)ccc2[nH]1", "Ratio CC50/IC50", "<1"],
  ["Nc1c(-c2ccccc2)c2cc(Cl)ccc2[nH]c1=O", "Ratio CC50/IC50", "<1"],
  ["CC(=O)Nc1c(-c2ccccc2F)c2cc(Cl)ccc2[nH]c1=O", "Ratio CC50/IC50", "<1"],
  ["Nc1c(-c2ccccc2Cl)c2cc(Cl)ccc2[nH]c1=O", "Ratio CC50/IC50", "<1"]
]}

Now examine the next entry.
# input # lookup: Ratio CC50/IC50 of O=c1cc(-c2ccccc2Cl)c2cc(Cl)ccc2[nH]1
# output <1

----------
# CC50 per record follows
# ASSAY COMMENT: Cytotoxicity against human Hep G2.2.15 cells
# Assay type: cell-based, HepG2 2.2.15
Use mM as the unit, but write only the number.

{"columns": ["TEST SMILES", "READOUT LABEL", "TEST RESULT"],
 "data": [
  ["Nc1c(-c2ccccc2)c2cc(Cl)ccc2[nH]c1=O", "CC50", 0.399]
]}

# input # lookup: CC50 of Nc1ccn([C@@H]2CS[C@H](CO)O2)c(=O)n1
# output 30

# input # lookup: CC50 of O=c1[nH]c2ccc(Cl)cc2c(-c2ccccc2Cl)c1CCO
# output 1.72

# input # lookup: CC50 of CC(=O)Nc1c(-c2ccccc2)c2cc(Cl)ccc2[nH]c1=O
# output 0.239

----------
# CC50 per record follows
# ASSAY COMMENT: Cytotoxicity against human Hep G2.2.15 cells
# Format: cell-based, HepG2 2.2.15
Please append the unit to your numeric answer.

Record excerpt, results attached:
{"columns": ["MOLECULE", "READOUT LABEL", "TEST RESULT"],
 "data": [
  ["CC(=O)Nc1c(-c2ccccc2Cl)c2cc(Cl)ccc2[nH]c1=O", "CC50", "208 µM"],
  ["O=c1cc(-c2ccccc2)c2cc(Cl)ccc2[nH]1", "CC50", "1250 µM"]
]}

Now examine the next entry.
# input # lookup: CC50 of CC(=O)OC1N=C(c2ccccc2F)c2cc(Cl)ccc2NC1=O (stereo not drawn)
# output 344 µM

----------
# Ratio CC50/IC50 per record follows
# ASSAY COMMENT: Selectivity index, ratio of CC50 for human Hep G2.2.15 cells to IC50 for HBV e antigen secretion
# Format: functional

{"columns": ["COMPOUND", "READOUT LABEL", "TEST RESULT"],
 "data": [
  ["O=C1CN=C(c2ccccc2Cl)c2cc(Cl)ccc2N1", "Ratio CC50/IC50", "<1"],
  ["O=c1[nH]c2ccc(Cl)cc2c(-c2ccccc2F)c1CCO", "Ratio CC50/IC50", ">5.5"],
  ["O=C1CN2OC2(c2ccccc2Cl)c2cc(Cl)ccc2N1 (stereo unspecified)", "Ratio CC50/IC50", "<1"],
  ["CC(=O)Nc1c(-c2ccccc2)c2cc(Cl)ccc2[nH]c1=O", "Ratio CC50/IC50", "<1"],
  ["Nc1ccn([C@@H]2CS[C@H](CO)O2)c(=O)n1", "Ratio CC50/IC50", 1.2]
]}

Now examine the next entry.
# input # lookup: Ratio CC50/IC50 of O=C1CN2OC2(c2ccccc2F)c2cc(Cl)ccc2N1 (stereo unspecified)
# output <1

----------
# Ratio CC50/IC50 per record follows
# ASSAY COMMENT: Selectivity index, ratio of CC50 for human Hep G2.2.15 cells to IC50 for HBV surface antigen secretion
# Assay type: functional
Please give the numeric answer without any surrounding text.

Record excerpt, results attached:
{"columns": ["COMPOUND", "Ratio CC50/IC50"],
 "data": [
  ["Nc1c(-c2ccccc2Cl)c2cc(Cl)ccc2[nH]c1=O", 1],
  ["O=c1cc(-c2ccccc2Cl)c2cc(Cl)ccc2[nH]1", 8],
  ["Nc1c(-c2ccccc2)c2cc(Cl)ccc2[nH]c1=O", 6],
  ["Nc1ccn([C@@H]2CS[C@H](CO)O2)c(=O)n1", 2.6],
  ["O=c1cc(-c2ccccc2)c2cc(Cl)ccc2[nH]1", 2.6],
  ["CC(=O)OC1N=C(c2ccccc2F)c2cc(Cl)ccc2NC1=O (configuration not stated)", 2.2]
]}

Now examine the next entry.
# input # lookup: Ratio CC50/IC50 of O=C1CN2OC2(c2ccccc2)c2cc(Cl)ccc2N1 (configuration not stated)
# output 1.3

----------
# Ratio CC50/IC50 per record follows
# ASSAY COMMENT: Selectivity index, ratio of CC50 for human Hep G2.2.15 cells to IC50 for HBV e antigen secretion
# Assay type: functional

Record excerpt, results attached:
{"columns": ["MOLECULE", "Ratio CC50/IC50"],
 "data": [
  ["CC(=O)Nc1c(-c2ccccc2Cl)c2cc(Cl)ccc2[nH]c1=O", 2.6],
  ["O=c1cc(-c2ccccc2F)c2cc(Cl)ccc2[nH]1", ">2.4"],
  ["CC(=O)OC1N=C(c2ccccc2F)c2cc(Cl)ccc2NC1=O (centres undefined)", "<1"]
]}

# input # lookup: Ratio CC50/IC50 of O=c1[nH]c2ccc(Cl)cc2c(-c2ccccc2)c1CCO
# output >5.2

# input # lookup: Ratio CC50/IC50 of CC(=O)OC1N=C(c2ccccc2Cl)c2cc(Cl)ccc2NC1=O (centres undefined)
# output <1

# input # lookup: Ratio CC50/IC50 of O=C1CN2OC2(c2ccccc2)c2cc(Cl)ccc2N1 (centres undefined)
# output <1

# input # lookup: Ratio CC50/IC50 of O=c1[nH]c2ccc(Cl)cc2c(-c2ccccc2Cl)c1CCO
# output 3.4

# input # lookup: Ratio CC50/IC50 of Nc1c(-c2ccccc2F)c2cc(Cl)ccc2[nH]c1=O
# output <1

# input # lookup: Ratio CC50/IC50 of O=C1CN=C(c2ccccc2F)c2cc(Cl)ccc2N1
# output <1

----------
# ASSAY COMMENT: Selectivity index, ratio of CC50 for human Hep G2.2.15 cells to IC50 for HBV surface antigen secretion
# Type: functional
READOUT LABEL: Ratio CC50/IC50

{"columns": ["MOLECULE", "Ratio CC50/IC50"],
 "data": [
  ["O=C1CN2OC2(c2ccccc2Cl)c2cc(Cl)ccc2N1 (stereo not given)", "<1"]
]}

# input # lookup: Ratio CC50/IC50 of O=c1cc(-c2ccccc2F)c2cc(Cl)ccc2[nH]1
# output >1.9

# input # lookup: Ratio CC50/IC50 of CC(=O)Nc1c(-c2ccccc2F)c2cc(Cl)ccc2[nH]c1=O
# output <1

# input # lookup: Ratio CC50/IC50 of O=C1CN=C(c2ccccc2F)c2cc(Cl)ccc2N1
# output <1

# input # lookup: Ratio CC50/IC50 of O=C1CN=C(c2ccccc2Cl)c2cc(Cl)ccc2N1 [DELORAZEPAM]
# output <1
